Tested on: Hedgehog Signaling Pathway
Test Summary: Gli-Luc reporter gene cell assay in C3H10T1/2/Gli-Luc cells stimulated with Shh
Assay type: cell-based, mouse
Study Conditions: Mus musculus, C3H 10T1/2, 24 h, 30 nM Shh, luciferase activity (RLU), read-out: IC50 values of compounds that inhibit Hh pathway
Decide using IC50 alone. Strictly below 2 nM: true. Equal to or above 2 nM: false.

{"columns": ["Smiles", "Class Label"],
 "data": [
  ["Cc1cc(-c2ccc(C(F)(F)F)cc2)ccc1C(=O)Nc1ccc(C)c(-c2nc3ccccc3[nH]2)c1", "false"],
  ["Cc1ccc2nc(-c3cc(NC(=O)c4ccc(N5C[C@@H](C)N(C)[C@@H](C)C5)cc4Cl)ccc3Cl)[nH]c2c1", "false"],
  ["C[C@@H]1CN(c2ccc(C(=O)Nc3ccc(Cl)c(-c4nc5ccc(F)cc5[nH]4)c3)c(Cl)c2)C[C@H](C)N1C", "true"],
  ["CCN1[C@H](C)CN(c2ccc(C(=O)Nc3ccc(Cl)c(-c4nc5ccccc5[nH]4)c3)cn2)C[C@@H]1C", "true"],
  ["CCN1[C@H](C)CN(c2ccc(C(=O)Nc3ccc(Cl)c(-c4nc5ccccc5[nH]4)c3)c(Cl)c2)C[C@@H]1C", "true"],
  ["O=C(Nc1ccc(Cl)c(-c2nc3ccccc3[nH]2)c1)c1ccc(-c2ccc(C(F)(F)F)cc2)cc1Cl", "false"],
  ["C[C@@H]1CN(c2ccc(C(=O)Nc3ccc(Cl)c(-c4nc5ccccc5[nH]4)c3)cn2)C[C@H](C)N1C", "true"],
  ["C[C@@H]1CN(c2ccc(C(=O)Nc3cnc(Cl)c(-c4nc5ccccc5[nH]4)c3)c(Cl)c2)C[C@H](C)O1", "false"],
  ["C[C@@H]1CN(c2ccc(C(=O)Nc3ccc(Cl)c(-c4ncc(-c5nccs5)[nH]4)c3)c(Cl)c2)C[C@H](C)N1C", "false"]
]}
